Test system: Blumeria graminis f. Sp. tritici (Erysiphe graminis f. sp. tritici)
Test method notes: Fungicidal activity against Blumeria graminis f. sp. tritici / wheat / leaf disc preventative (powdery mildew on wheat)
Format: in vivo
Condition description: foliar, wheat leaf segments, inoculated 1 day after application, compared to untreated, read-out: disease control
Give pest or weed control at 200 ppm for every item shown.

Provide Blumeria graminis f. Sp. tritici (Erysiphe graminis f. sp. tritici) pest or weed control at 200 ppm reading for Clc1ccccc1Cc1cccc(-c2ncc3c(n2)OCCO3)n1 .
≥ 80%

Provide Blumeria graminis f. Sp. tritici (Erysiphe graminis f. sp. tritici) pest or weed control at 200 ppm reading for COc1ccc(Cc2cccc(-c3ncc4c(n3)CCCC4)n2)cn1 .
≥ 80%

Provide Blumeria graminis f. Sp. tritici (Erysiphe graminis f. sp. tritici) pest or weed control at 200 ppm reading for Cc1ccccc1Cc1cccc(-c2ncc3c(n2)CCOC3)n1 .
≥ 80%

Provide Blumeria graminis f. Sp. tritici (Erysiphe graminis f. sp. tritici) pest or weed control at 200 ppm reading for Clc1ccccc1Cc1cccc(-c2ncc3c(n2)CCOC3)n1 .
≥ 80%

Provide Blumeria graminis f. Sp. tritici (Erysiphe graminis f. sp. tritici) pest or weed control at 200 ppm reading for Clc1cccc(Cc2cccc(-c3ncc4c(n3)CCOC4)n2)c1 .
≥ 80%

Provide Blumeria graminis f. Sp. tritici (Erysiphe graminis f. sp. tritici) pest or weed control at 200 ppm reading for Clc1ccccc1Cc1cccc(-c2ncc3c(n2)CCCCC3)n1 .
≥ 80%

Provide Blumeria graminis f. Sp. tritici (Erysiphe graminis f. sp. tritici) pest or weed control at 200 ppm reading for COc1ccc(OC)c(Cc2cccc(-c3ncc4c(n3)CCOC4)n2)c1 .
≥ 80%

Provide Blumeria graminis f. Sp. tritici (Erysiphe graminis f. sp. tritici) pest or weed control at 200 ppm reading for Cc1cccc(Cc2cccc(-c3ncc4c(n3)CCCCC4)n2)c1 .
≥ 80%

Provide Blumeria graminis f. Sp. tritici (Erysiphe graminis f. sp. tritici) pest or weed control at 200 ppm reading for CC1(C)CCc2cnc(-c3cccc(Cc4ccccc4)n3)nc2C1 .
≥ 80%

Provide Blumeria graminis f. Sp. tritici (Erysiphe graminis f. sp. tritici) pest or weed control at 200 ppm reading for COc1ccccc1Cc1cccc(-c2ncc3c(n2)CCCCC3)n1 .
≥ 80%

Provide Blumeria graminis f. Sp. tritici (Erysiphe graminis f. sp. tritici) pest or weed control at 200 ppm reading for COc1ccc(Cc2cccc(-c3ncc4c(n3)CCOC4)n2)cc1 .
≥ 80%

Provide Blumeria graminis f. Sp. tritici (Erysiphe graminis f. sp. tritici) pest or weed control at 200 ppm reading for COc1ccc(Cc2cccc(-c3ncc4c(n3)CCCCC4)n2)cc1 .
≥ 80%

Provide Blumeria graminis f. Sp. tritici (Erysiphe graminis f. sp. tritici) pest or weed control at 200 ppm reading for Cc1ccc(Cc2cccc(-c3ncc4c(n3)CCCCC4)n2)cc1 .
≥ 80%

Provide Blumeria graminis f. Sp. tritici (Erysiphe graminis f. sp. tritici) pest or weed control at 200 ppm reading for c1ccc(Cc2cccc(-c3ncc4c(n3)CCC3(C4)OCCO3)n2)cc1 .
≥ 80%

Provide Blumeria graminis f. Sp. tritici (Erysiphe graminis f. sp. tritici) pest or weed control at 200 ppm reading for c1ccc(Cc2cccc(-c3ncc4c(n3)CCOC4)n2)cc1 .
≥ 80%

Provide Blumeria graminis f. Sp. tritici (Erysiphe graminis f. sp. tritici) pest or weed control at 200 ppm reading for Cc1ccccc1Cc1cccc(-c2ncc3c(n2)CCCCC3)n1 .
≥ 80%

Provide Blumeria graminis f. Sp. tritici (Erysiphe graminis f. sp. tritici) pest or weed control at 200 ppm reading for Clc1ccc(Cc2cccc(-c3ncc4c(n3)CCCC4)n2)cn1 .
≥ 80%

Provide Blumeria graminis f. Sp. tritici (Erysiphe graminis f. sp. tritici) pest or weed control at 200 ppm reading for CO/N=C1\CCCc2nc(-c3cccc(Cc4ccccc4)n3)ncc21 .
≥ 80%

Provide Blumeria graminis f. Sp. tritici (Erysiphe graminis f. sp. tritici) pest or weed control at 200 ppm reading for Cc1ccc(Cc2cccc(-c3ncc4c(n3)CC(C)(C)CC4)n2)cc1 .
≥ 80%
